B1: Neutrophil cytosol factor 2, residues 456 to 514; numbered along this chain, P19878 (parent)
chain: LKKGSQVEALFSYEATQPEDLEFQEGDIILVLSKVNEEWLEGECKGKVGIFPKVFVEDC

Variants of: B1
Test: abundance fitness (aPCA) (normalised: wild type 0, dead -1); higher = more abundant; growth selection in yeast, the domain comes from the species named
Settings: Homo sapiens
Kind request: treat -0.4 as inclusive, so abundance fitness at -0.4 or higher is true, anything lower is false.

C44A: true
E19Q: true
S12P: true
I28F: false
W39Q: false

# input Is reported abundance fitness greater than or equal to -0.4 here: V56R
# output false

# input Record: L30W
# output false

# input Record: F11M
# output true

# input Record: K2H
# output true

# input Record: L30N
# output true

# input Record: C59R
# output true

Source of measurements: the Human Domainome abundance scans (Beltran et al. 2025)
